Ref: PubChem BioAssay (NCI)

Tested on: MDA-MB-435 melanoma
Test: NCI-60 one-dose screen, 48 h (100 = growth as untreated, 0 = no growth, -100 = all killed)
Conditions: 10 µM unless noted
The panel holds about 83,000 compounds, 20% with a hit somewhere; the sample as a whole holds those more often.
Assignment: determine reported growth for the given compounds.
Numeric only. Scale: %

// growth value for `CCOC(=O)c1c(SC)nn(-c2cc(=O)[nH]c3ccc(Br)cc23)c1N` : 107

// growth value for COc1ccc(C(O)c2cc3c(N)c(C(=O)Nc4ccc(Br)cc4)sc3nc2C)cc1 (stereo not given) : -39.8

// growth value for `O=C(O)C(/C=C/c1ccco1)=N\Nc1nc(-c2ccc(Cl)cc2)cs1` : 45.7

// growth value for Brc1ccc(C2CC(c3cccc(Nc4ccncc4)c3)=NN2c2ccccc2)cc1 (stereo not given) : 70.5

// growth value for `COc1ccc(C2=C(c3ccccc3)c3ccc(OC(C)=O)cc3OC2(C)C)cc1` : 80.5

* * *

Test system: SW-620 colon
Experiment: NCI-60 one-dose screen, 48 h (100 = growth as untreated, 0 = no growth, -100 = all killed)
Conditions: 10 µM unless noted
Procedure: Growth inhibition of the SW-620 human tumor cell line is measured as a screen for anti-cancer activity. Cells are grown in 96 well plates and exposed to the test compound for 48 hours. Compounds are tested at a single concentration, which is 10^-5 M for most compounds. The reported endpoint is percent growth (GI% or GIPRCNT), where numbers from 0 - 100% represent growth inhibition, and numbers from -100% - 0 represent cell death. For example, a value of 40 represents 60% growth inhibition. […]
The panel holds about 83,000 compounds, 20% with a hit somewhere; the sample as a whole holds those more often.
Rule: growth under 50% gives F, otherwise T.

Exercise: Entry `O=C(N/N=C/c1cccc(O)c1)c1ccccc1Nc1cccc(C(F)(F)F)c1` : is its growth no less than 50%?
Solution: T

Exercise: Entry Cc1ccc(C2C3CC4CCCCC4N3[C@@]3(C(=O)Nc4cc(Cl)ccc43)C2C(=O)c2nc3ccccc3[nH]2)cc1 (some centres undefined) : is its growth no less than 50%?
Solution: F

Exercise: Entry `COc1cc(-c2nc3sccn3c2-c2ccnc(NCCNS(=O)(=O)c3ccc(F)cc3)n2)ccc1F` : is its growth no less than 50%?
Solution: F

Exercise: Entry `CC(=O)[C@@H]1CC[C@]2(C(N)=O)CC[C@]3(C)[C@H](CC[C@@H]4[C@@]5(C)CCC(=O)C(C)(C)[C@@H]5CC[C@]43C)[C@@H]12` : is its growth no less than 50%?
Solution: T

Exercise: Entry `O=C(N/N=C/c1ccc(O)c(O)c1)c1sc2ccccc2c1Cl` : is its growth no less than 50%?
Solution: T

Exercise: Entry `CS(=O)(=O)Nc1cc(-c2ccc3ncnc(Nc4ccc5[nH]ncc5c4)c3c2)cnc1Cl` : is its growth no less than 50%?
Solution: T

Exercise: Entry `Nc1nnc(C(=O)c2cnc3n(c2=O)CCCCC3)s1` : is its growth no less than 50%?
Solution: T

Exercise: Entry `O=C(CCN1CCCC1)Nc1ccc2c(NCc3ccc(F)cc3)c3ccccc3nc2c1` : is its growth no less than 50%?
Solution: F

Exercise: Entry `O=C(Nc1sc2c(c1C(=O)O)CCCC2)c1cccc(C(F)(F)F)c1` : is its growth no less than 50%?
Solution: T

Exercise: Entry Clc1ccc(C2CC(c3cccc(Nc4ccncc4)c3)=NN2c2ccc(Cl)cc2)cc1 (centres undefined) : is its growth no less than 50%?
Solution: F

Exercise: Entry `O=c1[nH]nc(-c2ccc(Br)cc2)cc1Cc1ccc(O)cc1` : is its growth no less than 50%?
Solution: T

Exercise: Entry `CC(=O)O[C@]1(C(C)=O)CC[C@H]2[C@@H]3C=C(Cl)C4=CC(=O)CC[C@]4(C)[C@H]3CC[C@@]21C` : is its growth no less than 50%?
Solution: T

Exercise: Entry `CN1CCN(c2cc(F)c(NC3=C(Cl)C(=O)c4ncccc4C3=O)c(F)c2)CC1` : is its growth no less than 50%?
Solution: F

Exercise: Entry `OC1(c2ccc(Cl)c(C(F)(F)F)c2)CCN(CCCC(c2ccc(F)cc2)c2ccc(F)cc2)CC1` : is its growth no less than 50%?
Solution: F

Exercise: Entry `CN1CCN(Cc2ccc(NC(=O)c3cncc(C#Cc4cnccc4C(F)(F)F)c3)cc2C(F)(F)F)CC1` : is its growth no less than 50%?
Solution: T

Exercise: Entry `CC(=O)c1c(C)[nH]c(-c2nc3ccc(N4CCN(C)CC4)cc3[nH]2)c1-c1ccccc1` : is its growth no less than 50%?
Solution: T

Exercise: Entry `CC(=O)OCCCCCNc1ccccc1` : is its growth no less than 50%?
Solution: T

Exercise: Entry `O=C(Nc1nc(-c2ccc(Br)cc2)cs1)c1cc(-c2ccc(Br)cc2)nc2ccc(Cl)cc12` : is its growth no less than 50%?
Solution: T

Exercise: Entry COc1ccc(C2=NN(C(C)=O)C(c3cn(Cc4ccc(Cl)cc4)c4ccccc34)C2)cc1 (centres undefined) : is its growth no less than 50%?
Solution: T
